target: Alpha-2A adrenergic receptor (Homo sapiens, UniProt P08913); format: functional, cell-based; note: assay procedure not described here
Sequence (P08913 whole entry): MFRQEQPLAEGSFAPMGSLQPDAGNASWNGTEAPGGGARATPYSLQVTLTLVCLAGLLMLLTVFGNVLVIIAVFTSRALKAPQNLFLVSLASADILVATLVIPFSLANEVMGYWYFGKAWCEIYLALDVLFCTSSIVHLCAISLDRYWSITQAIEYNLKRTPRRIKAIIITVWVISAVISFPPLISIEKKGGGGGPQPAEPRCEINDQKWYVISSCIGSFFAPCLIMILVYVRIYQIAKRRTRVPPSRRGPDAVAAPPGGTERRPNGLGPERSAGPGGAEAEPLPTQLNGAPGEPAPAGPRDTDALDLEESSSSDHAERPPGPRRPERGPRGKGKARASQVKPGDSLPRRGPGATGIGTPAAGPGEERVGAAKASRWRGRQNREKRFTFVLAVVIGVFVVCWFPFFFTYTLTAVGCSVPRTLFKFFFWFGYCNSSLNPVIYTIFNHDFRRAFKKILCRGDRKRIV
measurement kind: AC50

Examples with answers:
INSERT INTO assay_data (molecule, reported) VALUES
  ('COc1ccccc1N1CCN(CC(O)COc2cccc3ccccc23)CC1 (centres undefined)', '> 30 µM'),
  ('NCC[C@H](O)C(=O)N[C@@H]1C[C@H](N)[C@@H](O[C@H]2O[C@H](CN)[C@@H](O)[C@H](O)[C@H]2O)[C@H](O)[C@H]1O[C@H]1O[C@H](CO)[C@@H](O)[C@H](N)[C@H]1O', '> 10 µM'),
  ('CCCCN1C[C@H](O)[C@@H](O)[C@H](O)[C@H]1CO', '> 30 µM'),
  ('CN1C(=O)C(O)N=C(c2ccccc2)c2cc(Cl)ccc21 (centres undefined)', '> 10 µM'),
  ('C=CCN1CCCC1CNC(=O)c1cc(S(N)(=O)=O)cc(OC)c1OC (centres undefined) [VERALIPRIDE]', '> 30 µM');

Alpha-2A adrenergic receptor (Homo sapiens, UniProt P08913) / AC50 / Cc1cn([C@H]2C[C@H](N=[N+]=[N-])[C@@H](CO)O2)c(=O)[nH]c1=O : value?; note: assay procedure not described here
> 10 µM

Alpha-2A adrenergic receptor (Homo sapiens, UniProt P08913) / AC50 / c1cnc(N2CCN(Cc3ccc4c(c3)OCO4)CC2)nc1 : value?; note: assay procedure not described here
> 30 µM

###

Quick reference: AC50 of the listed items.
target: 5-hydroxytryptamine receptor 2A (Homo sapiens, UniProt P28223); format: functional, cell-based; note: assay procedure not described here
Sequence (P28223 whole entry): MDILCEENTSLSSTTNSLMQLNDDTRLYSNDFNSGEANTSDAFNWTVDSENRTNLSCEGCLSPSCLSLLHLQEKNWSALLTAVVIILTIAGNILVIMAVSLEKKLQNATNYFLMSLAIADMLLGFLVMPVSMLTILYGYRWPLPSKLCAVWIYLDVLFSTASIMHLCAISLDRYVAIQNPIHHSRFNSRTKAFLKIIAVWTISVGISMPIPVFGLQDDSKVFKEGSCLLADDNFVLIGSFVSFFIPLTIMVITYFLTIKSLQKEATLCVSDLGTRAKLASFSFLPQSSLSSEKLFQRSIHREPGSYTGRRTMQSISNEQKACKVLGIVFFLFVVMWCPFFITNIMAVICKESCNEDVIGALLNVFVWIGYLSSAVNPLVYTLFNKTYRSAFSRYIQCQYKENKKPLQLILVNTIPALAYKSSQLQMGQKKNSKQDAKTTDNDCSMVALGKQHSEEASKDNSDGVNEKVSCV

Examples with answers:
INSERT INTO results (compound, measurement_target, reported) VALUES
  ('CCCC(C)C1(CC)C(=O)NC(=O)NC1=O (stereo unspecified)', '5-hydroxytryptamine receptor 2A (Homo sapiens, UniProt P28223)', '> 10 µM'),
  ('CCCCCCOc1ccccc1C(N)=O [EXALAMIDE]', '5-hydroxytryptamine receptor 2A (Homo sapiens, UniProt P28223)', '> 30 µM'),
  ('COc1ccc(CCNCC(O)COc2cccc(C)c2)cc1OC (stereo unspecified)', '5-hydroxytryptamine receptor 2A (Homo sapiens, UniProt P28223)', '> 10 µM'),
  ('Cn1nnc2c(C(N)=O)ncn2c1=O [TEMOZOLOMIDE]', '5-hydroxytryptamine receptor 2A (Homo sapiens, UniProt P28223)', '> 30 µM');

Quick check: AC50 of C[C@H](N)[C@H](O)c1cccc(O)c1 ?
> 10 µM

Quick check: AC50 of CCN1CCN(C(=O)N[C@@H](C(=O)N[C@@H]2C(=O)N3C(C(=O)O)=C(CSc4nnnn4C)CS[C@H]23)c2ccc(O)cc2)C(=O)C1=O ?
> 30 µM

Quick check: AC50 of CO[C@@H]1[C@@H](O[C@@H]2O[C@H](C)[C@@H](O[C@H]3C[C@@](C)(O)[C@@H](OC(=O)CC(C)C)[C@H](C)O3)[C@H](N(C)C)[C@H]2O)[C@@H](CC=O)C[C@@H](C)[C@@H](O)/C=C/C=C/C[C@@H](C)OC(=O)C[C@H]1OC(C)=O ?
> 10 µM

###

biological target: 5-hydroxytryptamine receptor 2B (Homo sapiens, UniProt P41595); assay type: functional, cell-based; note: assay procedure not described here
Sequence (P41595 whole entry): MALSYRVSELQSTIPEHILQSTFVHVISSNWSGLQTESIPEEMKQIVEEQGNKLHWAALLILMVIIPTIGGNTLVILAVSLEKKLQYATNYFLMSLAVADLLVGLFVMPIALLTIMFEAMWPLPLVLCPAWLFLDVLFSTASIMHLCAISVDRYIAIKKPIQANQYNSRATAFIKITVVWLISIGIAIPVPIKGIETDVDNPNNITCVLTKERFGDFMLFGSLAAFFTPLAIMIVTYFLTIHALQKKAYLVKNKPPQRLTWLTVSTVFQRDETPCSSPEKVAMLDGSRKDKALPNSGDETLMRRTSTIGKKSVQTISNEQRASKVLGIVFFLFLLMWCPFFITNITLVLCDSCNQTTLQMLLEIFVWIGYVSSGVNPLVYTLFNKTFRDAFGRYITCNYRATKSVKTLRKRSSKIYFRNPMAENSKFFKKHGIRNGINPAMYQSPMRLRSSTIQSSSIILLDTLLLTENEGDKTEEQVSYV
Quick reference: AC50 of the listed items.

Examples with answers:
INSERT INTO assay_data (compound, measurement_kind, reported) VALUES
  ('CN1C(=O)C(O)N=C(c2ccccc2Cl)c2cc(Cl)ccc21 (stereo not drawn)', 'AC50', '> 30 µM'),
  ('O=C(OCC(O)CO)c1ccccc1Nc1ccnc2cc(Cl)ccc12 (stereo not drawn)', 'AC50', '> 30 µM'),
  ('CC(C)C(=O)c1c(C(C)C)nn2ccccc12', 'AC50', '> 30 µM'),
  ('CC(C)(C)c1cc(C(C)(C)C)c(NC(=O)c2c[nH]c3ccccc3c2=O)cc1O', 'AC50', '> 10 µM'),
  ('CCCN1C[C@H](CSC)C[C@@H]2c3cccc4[nH]cc(c34)C[C@H]21 [PERGOLIDE]', 'AC50', '0.0155 µM'),
  ('COc1ccc(-c2ccc3cc(C(=O)O)ccc3c2)cc1C12CC3CC(CC(C3)C1)C2', 'AC50', '> 30 µM'),
  ('C[C@@H](O)[C@H]1C(=O)N2C(C(=O)O)=C(S[C@@H]3CN[C@H](C(=O)N(C)C)C3)[C@H](C)[C@H]12', 'AC50', '> 300 µM'),
  ('Nc1ccn([C@H]2CC[C@@H](CO)O2)c(=O)n1', 'AC50', '> 10 µM'),
  ('CCCCc1ncc(/C=C(\Cc2cccs2)C(=O)O)n1Cc1ccc(C(=O)O)cc1', 'AC50', '> 10 µM'),
  ('O=C(O)[C@H](CC(=O)N1C[C@H]2CCCC[C@H]2C1)Cc1ccccc1 [MITIGLINIDE]', 'AC50', '> 10 µM');

Quick check: AC50 of CO[C@H]1C[C@@H]2CC[C@@H](C)[C@@](O)(O2)C(=O)C(=O)N2CCCC[C@H]2C(=O)O[C@H]([C@H](C)C[C@@H]2CC[C@@H](O)[C@H](OC)C2)CC(=O)[C@H](C)/C=C(\C)[C@@H](O)[C@@H](OC)C(=O)[C@H](C)C[C@H](C)/C=C/C=C/C=C/1C ?
> 10 µM

Quick check: AC50 of CC(C(=O)O)c1ccc(N2Cc3ccccc3C2=O)cc1 (stereo not drawn) ?
> 30 µM

Quick check: AC50 of C/C(O)=C(\C#N)C(=O)Nc1ccc(C(F)(F)F)cc1 [TERIFLUNOMIDE] ?
> 30 µM

Quick check: AC50 of Cc1oc(=O)oc1CN1CCN(c2cc3c(cc2F)c(=O)c(C(=O)O)c2n3C(C)S2)CC1 (stereo not drawn) ?
> 30 µM

Quick check: AC50 of CN(C)CCC(c1ccc(Cl)cc1)c1ccccn1 (stereo not drawn) ?
> 10 µM

Quick check: AC50 of CO[C@@H]1[C@@H](O[C@@H]2O[C@H](C)[C@@H](O[C@H]3C[C@@](C)(O)[C@@H](OC(=O)CC(C)C)[C@H](C)O3)[C@H](N(C)C)[C@H]2O)[C@@H](CC=O)C[C@@H](C)[C@@H](O)/C=C/C=C/C[C@@H](C)OC(=O)C[C@H]1OC(C)=O ?
> 10 µM

Quick check: AC50 of COc1ccc2c3c1O[C@H]1[C@@H](O)C=C[C@H]4[C@@H](C2)N(C)CC[C@@]341 ?
> 10 µM

Quick check: AC50 of CC[C@H]1[C@@H](O)[C@@H]2[C@H](CC[C@]3(C)[C@@H]([C@H](C)CCC(=O)O)CC[C@@H]23)[C@@]2(C)CC[C@@H](O)C[C@@H]12 ?
> 30 µM
